Recorded values, source ChEMBL document CHEMBL1128671.

Target: 5-hydroxytryptamine receptor 1A (Rattus norvegicus, UniProt P19327)
Sequence (P19327 whole entry): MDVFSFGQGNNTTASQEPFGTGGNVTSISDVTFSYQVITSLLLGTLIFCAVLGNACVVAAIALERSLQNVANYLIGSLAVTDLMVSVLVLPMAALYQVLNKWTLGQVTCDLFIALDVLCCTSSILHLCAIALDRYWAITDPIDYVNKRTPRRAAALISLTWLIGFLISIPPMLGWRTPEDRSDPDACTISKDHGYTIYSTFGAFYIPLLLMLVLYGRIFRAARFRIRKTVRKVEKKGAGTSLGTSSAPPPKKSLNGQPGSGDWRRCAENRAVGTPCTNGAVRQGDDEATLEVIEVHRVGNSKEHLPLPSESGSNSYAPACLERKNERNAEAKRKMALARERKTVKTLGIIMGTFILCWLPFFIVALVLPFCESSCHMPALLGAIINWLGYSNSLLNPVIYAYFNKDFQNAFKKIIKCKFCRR
Listed here: items and their measured Ki.
Provide only the numeric value, understood in nM.

COc1ccccc1N1CCN(CCNC(=O)c2sccc2C)CC1: 3.09
COc1ccccc1N1CCN(CCCNC(=O)c2cccnc2)CC1: 321
COc1ccccc1N1CCN(CCCCNC(=O)C2CCC3CCCC32)CC1 (stereo not given): 0.63
COc1ccccc1N1CCN(CCCCNC(=O)c2ccco2)CC1: 55.7

Now, please, on to the next compound.
## Task # lookup: Ki of COc1ccccc1N1CCN(CCCCNC(=O)Cc2ccsc2)CC1
## Result 17.5
